- System: MV4-11 cells
- test-protocol: Cell proliferation assay (ATPlite)
- Type: cell-based
- run-parameters: Homo sapiens, 120 h; MV4-11 cells, five days; read-out: GI MV411 EC50
pEC50: −log10 of the molar value.
endpoint-label: pEC50

- molecule: "CC(C)[C@@H]1CN(c2ncc(-c3c(F)cc(N4CCN(C)[C@@H](C)C4)c(NC(=O)c4c[nH]c(=O)cc4C(F)F)c3F)cn2)CCO1 [Example 117]"
  endpoint-label: "pEC50"
  observed-result: 7.55
- molecule: "C[C@@H]1CN(c2ncc(-c3c(F)cc(N4C[C@@H](C)N(C)[C@@H](C)C4)c(NC(=O)c4c[nH]c(=O)cc4C(F)(F)F)c3F)cn2)C[C@H](C)O1 [Example 8]"
  endpoint-label: "pEC50"
  observed-result: 7.51
- molecule: "C[C@@H]1CN(c2cc(F)c(C3=CCN(c4ncc(C#N)s4)CC3)c(F)c2NC(=O)c2c[nH]c(=O)cc2C(F)(F)F)C[C@H](C)N1C [Example 148]"
  endpoint-label: "pEC50"
  observed-result: 7.13
- molecule: "C[C@H]1CN(c2cc(F)c(C3=CCCN(C(=O)OC4(C)CCC4)C3)c(F)c2NC(=O)c2c[nH]c(=O)cc2C(F)F)CCN1C [Example 94]"
  endpoint-label: "pEC50"
  observed-result: 7.03
- molecule: "C[C@@H]1CN(c2cc(F)c(-c3cnc4c(c3)OCCO4)c(F)c2NC(=O)c2c[nH]c(=O)cc2C(F)(F)F)C[C@H](C)N1C [Example 73]"
  endpoint-label: "pEC50"
  observed-result: 6.96
- molecule: "C[C@H]1CN(c2cc(F)c(C3=CCN(c4ccnc(C#N)n4)C3)c(F)c2NC(=O)c2c[nH]c(=O)cc2C(F)(F)F)CCN1C [Example 107]"
  endpoint-label: "pEC50"
  observed-result: 7.22

----------
- target-entity: WDR5 (Homo sapiens, UniProt P61964)
endpoint-label: IC50

- mol-smiles: "C[C@H]1CN(c2cc(F)c(C3=CCN(c4ncc(C#N)s4)CC3)c(F)c2NC(=O)c2c[nH]c(=O)cc2C(F)(F)F)CCN1C"
  observed-result: "13.1 nM"
- mol-smiles: "C[C@@H]1CN(c2ncc(-c3c(F)cc(N4CCN(C)[C@@H](C)C4)c(NC(=O)c4c[nH]c(=O)cc4C(F)(F)F)c3F)cn2)C[C@@H](C)O1"
  observed-result: "13.8 nM"
- mol-smiles: "COc1cnc(N2CCC=C(c3c(F)cc(N4CCN(C)[C@@H](C)C4)c(NC(=O)c4c[nH]c(=O)cc4C(F)(F)F)c3F)C2)nc1"
  observed-result: "20.1 nM"
- mol-smiles: "C[C@H]1CN(c2cc(F)c(C3=CCN(c4ccnc(C#N)n4)C3)c(F)c2NC(=O)c2c[nH]c(=O)cc2C(F)(F)F)CCN1C"
  observed-result: "14.3 nM"
- mol-smiles: "C[C@@H]1CN(c2cc(F)c(-c3cnc(N4C[C@H](C)O[C@@H](C)C4)nc3)c(F)c2NC(=O)c2c[nH]c(=O)cc2C(F)(F)F)C[C@H](C)N1C"
  observed-result: "13.8 nM"
- mol-smiles: "C[C@@H]1CN(c2ncc(-c3c(F)cc(N4CCN(C)[C@@H](C)C4)c(NC(=O)c4ccc(F)cc4C(F)F)c3F)cn2)C[C@H](C)O1"
  observed-result: "10.9 nM"
- mol-smiles: "COc1cc(N2CC=C(c3c(F)cc(N4C[C@@H](C)N(C)[C@@H](C)C4)c(NC(=O)c4c[nH]c(=O)cc4C(F)(F)F)c3F)CC2)ncn1"
  observed-result: "14.5 nM"
